- Assayed System: ERR1 (also known as ERR-α or ERR-1) (Homo sapiens)
- Assay Protocol: TR-FRET assay (disruption of co-activator peptide binding to ERR1 LBD)
- Condition Summary: 6 nM 6His-ERR1LBD, 6 nM GST-SRC-2 peptide; average of 3 independent experiments
Exercise: state measured EC50 for each of the molecules provided.
Just the number in µM, nothing appended.

Problem: # get_value(readout= EC50, system= ERR1 (also known as ERR-α or ERR-1) (Homo sapiens)) for O=C(O)[C@H]1CCCN1CCN1C(=O)S/C(=C\c2ccc3c(ccn3Cc3ccc(C(F)(F)F)cc3C(F)(F)F)c2)C1=O [Compound 248]
Solution: 0.29

Problem: # get_value(readout= EC50, system= ERR1 (also known as ERR-α or ERR-1) (Homo sapiens)) for COCCN1C(=O)S/C(=C\c2ccc3c(cnn3Cc3ccc(Cl)cc3C(F)(F)F)c2)C1=O [Compound 123]
Solution: 0.045

Problem: # get_value(readout= EC50, system= ERR1 (also known as ERR-α or ERR-1) (Homo sapiens)) for O=C(O)[C@@H](CO)N1C(=O)S/C(=C\c2ccc3c(cnn3Cc3ccc(Cl)cc3C(F)(F)F)c2)C1=O [Compound 222]
Solution: 0.058

Problem: # get_value(readout= EC50, system= ERR1 (also known as ERR-α or ERR-1) (Homo sapiens)) for O=C1S/C(=C\c2ccc3c(cnn3Cc3ccc(Cl)cc3C(F)(F)F)c2)C(=O)N1C[C@H]1CN2CCC[C@H]2CO1 [Compound 202]
Solution: 0.035

* * *

Exercise: state measured pEC50 for each of the molecules provided.
- Assayed System: ERR1 (also known as ERR-α or ERR-1) (Homo sapiens)
- Assay Protocol: TR-FRET assay (disruption of co-activator peptide binding to ERR1 LBD)
- Condition Summary: 6 nM 6His-ERR1LBD, 6 nM GST-SRC-2 peptide; average of 3 independent experiments
# reply with the number alone; pEC50 is -log10 of concentration in mol/L

Problem: # get_value(readout= pEC50, system= ERR1 (also known as ERR-α or ERR-1) (Homo sapiens)) for CN(C)S(=O)(=O)NC(=O)CN1C(=O)S/C(=C\c2ccc3c(cnn3Cc3ccc(Cl)cc3C(F)(F)F)c2)C1=O [Compound 35]
Solution: 7.64

Problem: # get_value(readout= pEC50, system= ERR1 (also known as ERR-α or ERR-1) (Homo sapiens)) for O=C1S/C(=C\c2ccc3c(cnn3Cc3ccc(Cl)cc3C(F)(F)F)c2)C(=O)N1[C@@H]1CCN[C@@H](CO)C1 (relative stereo) [Compound 269]
Solution: 7.17

Problem: # get_value(readout= pEC50, system= ERR1 (also known as ERR-α or ERR-1) (Homo sapiens)) for O=C1S/C(=C\c2ccc3c(c2)c(O)nn3Cc2ccc(Cl)cc2C(F)(F)F)C(=O)N1CCN1CCCC1 [Compound 37]
Solution: 6.54

Problem: # get_value(readout= pEC50, system= ERR1 (also known as ERR-α or ERR-1) (Homo sapiens)) for O=C1S/C(=C\c2ccc3c(cnn3Cc3ccc(Cl)cc3C(F)(F)F)c2)C(=O)N1C[C@@H]1CSCCN1 [Compound 98]
Solution: 6.01

* * *

- Assayed System: ERR1 (also known as ERR-α or ERR-1) (Homo sapiens)
- Assay Protocol: TR-FRET assay (disruption of co-activator peptide binding to ERR1 LBD)
- Condition Summary: 6 nM 6His-ERR1LBD, 6 nM GST-SRC-2 peptide; average of 3 independent experiments
Exercise: state measured EC50 for each of the compounds provided.
Just the number in nM, nothing appended.

Problem: Which EC50 reading was recorded for the compound CN1C[C@H](O)C[C@H]1CN1C(=O)S/C(=C\c2ccc3c(cnn3Cc3ccc(Cl)cc3C(F)(F)F)c2)C1=O ?
Solution: 19

Problem: Which EC50 reading was recorded for the compound O=C1S/C(=C\c2ccc3c(cnn3Cc3ccc(Cl)cc3C(F)(F)F)c2)C(=O)N1[C@@H]1CNCC[C@@H]1F (relative stereo) ?
Solution: 15

Problem: Which EC50 reading was recorded for the compound O=C1S/C(=C\c2ccc3c(cnn3Cc3ccc(Cl)cc3C(F)(F)F)c2)C(=O)N1C1CCN(CCO)CC1 ?
Solution: 15

Problem: Which EC50 reading was recorded for the compound COC(=O)C(Cc1cn(C)cn1)N1C(=O)S/C(=C\c2ccc3c(cnn3Cc3ccc(Cl)cc3C(F)(F)F)c2)C1=O (stereo not shown) ?
Solution: 44

Problem: Which EC50 reading was recorded for the compound NC(=O)c1nn(Cc2ccc(Cl)cc2C(F)(F)F)c2ccc(/C=C3\SC(=O)N(CC(=O)O)C3=O)cc12 ?
Solution: 50

Problem: Which EC50 reading was recorded for the compound O=C1S/C(=C\c2ccc3c(cnn3Cc3ccc(Cl)cc3C(F)(F)F)c2)C(=O)N1CCNS(=O)(=O)N1CCOCC1 ?
Solution: 10

Problem: Which EC50 reading was recorded for the compound O=C1OCCC1N1C(=O)S/C(=C\c2ccc3c(cnn3Cc3ccc(C(F)(F)F)cc3C(F)(F)F)c2)C1=O (stereo not shown) ?
Solution: 50

* * *

Exercise: state measured EC50 for each of the compounds provided.
- Assayed System: ERR1 (also known as ERR-α or ERR-1) (Homo sapiens, UniProt P11474)
- Sequence (P11474 193-421 limits assumed, species assumed): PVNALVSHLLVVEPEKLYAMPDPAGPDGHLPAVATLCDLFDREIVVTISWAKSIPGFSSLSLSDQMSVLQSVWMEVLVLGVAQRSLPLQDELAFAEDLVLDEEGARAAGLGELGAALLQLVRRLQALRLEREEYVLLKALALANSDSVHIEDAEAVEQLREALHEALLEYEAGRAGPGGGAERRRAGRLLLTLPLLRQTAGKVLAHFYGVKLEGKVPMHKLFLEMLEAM
- Assay Protocol: TR-FRET assay (disruption of co-activator peptide binding to ERR1 LBD)
- Condition Summary: 6 nM 6His-ERR1LBD, 6 nM GST-SRC-2 peptide; average of 3 independent experiments
- Protocol: Time-Resolved Fluorescence Resonance Energy Transfer (TR-FRET) experiments were performed to examine the functional response of ERR1 (also known as ERR-α or ERR-1) ligands. The TR-FRET assay described herein relied on the conformation of ERR1 for binding to a co-activator peptide: when a test compound binds to ERR1 and alters its conformation, it can disrupt the binding of the co-activator peptide. […]
Just the number in nM, nothing appended.

Problem: Which EC50 reading was recorded for the compound NN1C(=O)S/C(=C\c2ccc3c(cnn3Cc3ccc(Cl)cc3C(F)(F)F)c2)C1=O [Compound 355] ?
Solution: 20

Problem: Which EC50 reading was recorded for the compound COc1ccc(Cn2ncc3cc(/C=C4\SC(=O)N(C5CCC(C(=O)NS(C)(=O)=O)CC5)C4=O)ccc32)c(C(F)(F)F)c1 (stereo not drawn) [Compound 24] ?
Solution: 12

Problem: Which EC50 reading was recorded for the compound O=C1S/C(=C\c2ccc3c(cnn3Cc3ccc(Cl)cc3C(F)(F)F)c2)C(=O)N1O [Compound 288] ?
Solution: 16

Problem: Which EC50 reading was recorded for the compound O=C1CN(CCN2C(=O)S/C(=C\c3ccc4c(cnn4Cc4ccc(Cl)cc4C(F)(F)F)c3)C2=O)CCN1 [Compound 79] ?
Solution: 30

Problem: Which EC50 reading was recorded for the compound O=C(O)[C@H](CO)N1C(=O)S/C(=C\c2ccc3c(cnn3Cc3ccc(Cl)cc3C(F)(F)F)c2)C1=O [Compound 221] ?
Solution: 61

Problem: Which EC50 reading was recorded for the compound CN1CCC(C(=O)O)(N2C(=O)S/C(=C\c3ccc4c(cnn4Cc4ccc(Cl)cc4C(F)(F)F)c3)C2=O)CC1 [Compound 220] ?
Solution: 74

* * *

- Assayed System: ERR1 (also known as ERR-α or ERR-1) (Homo sapiens)
- Assay Protocol: TR-FRET assay (disruption of co-activator peptide binding to ERR1 LBD)
- Condition Summary: 6 nM 6His-ERR1LBD, 6 nM GST-SRC-2 peptide; average of 3 independent experiments
Endpoint Name: EC50 (nM)
Just the number in nM, nothing appended.

Problem: # get_value(readout= EC50, system= ERR1 (also known as ERR-α or ERR-1) (Homo sapiens)) for O=C(O)CN1CCC(N2C(=O)S/C(=C\c3ccc4c(cnn4Cc4ccc(Cl)cc4C(F)(F)F)c3)C2=O)CC1
Solution: 16

Problem: # get_value(readout= EC50, system= ERR1 (also known as ERR-α or ERR-1) (Homo sapiens)) for O=C1S/C(=C\c2ccc3c(cnn3Cc3ccc(Cl)cc3C(F)(F)F)c2)C(=O)N1[C@H]1CCNC[C@@H]1F
Solution: 11

Problem: # get_value(readout= EC50, system= ERR1 (also known as ERR-α or ERR-1) (Homo sapiens)) for COCCN1C[C@H](F)C[C@H]1CN1C(=O)S/C(=C\c2ccc3c(cnn3Cc3ccc(Cl)cc3C(F)(F)F)c2)C1=O
Solution: 410

Problem: # get_value(readout= EC50, system= ERR1 (also known as ERR-α or ERR-1) (Homo sapiens)) for NC1CCCC(N2C(=O)S/C(=C\c3ccc4c(cnn4Cc4ccc(Cl)cc4C(F)(F)F)c3)C2=O)C1 (centres unmarked)
Solution: 14

Problem: # get_value(readout= EC50, system= ERR1 (also known as ERR-α or ERR-1) (Homo sapiens)) for CCOC(=O)[C@@H]1CCC[C@H]1N1C(=O)S/C(=C\c2ccc3c(cnn3Cc3ccc(Cl)cc3C(F)(F)F)c2)C1=O
Solution: 183

Problem: # get_value(readout= EC50, system= ERR1 (also known as ERR-α or ERR-1) (Homo sapiens)) for CN1CCC(N2C(=O)S/C(=C\c3ccc4c(cnn4Cc4ccc(Cl)cc4C(F)(F)F)c3)C2=O)C(=O)C1 (centres unmarked)
Solution: 65

Problem: # get_value(readout= EC50, system= ERR1 (also known as ERR-α or ERR-1) (Homo sapiens)) for O=C(O)CN1C(=O)S/C(=C\c2ccc3c(cnn3Cc3ccc(C(F)(F)F)cc3C(F)(F)F)c2)C1=O
Solution: 26

Problem: # get_value(readout= EC50, system= ERR1 (also known as ERR-α or ERR-1) (Homo sapiens)) for O=C1S/C(=C\c2ccc3c(cnn3Cc3ccc(Cl)cc3C(F)(F)F)c2)C(=O)N1Cc1ncon1
Solution: 36

Problem: # get_value(readout= EC50, system= ERR1 (also known as ERR-α or ERR-1) (Homo sapiens)) for O=C1S/C(=C\c2ccc3c(cnn3Cc3ccc(Cl)cc3C(F)(F)F)c2)C(=O)N1C[C@H]1CN2CCOC[C@H]2CO1
Solution: 46

Problem: # get_value(readout= EC50, system= ERR1 (also known as ERR-α or ERR-1) (Homo sapiens)) for C[C@H](N)CN1C(=O)S/C(=C\c2ccc3c(cnn3Cc3ccc(C(F)(F)F)cc3C(F)(F)F)c2)C1=O
Solution: 51

Problem: # get_value(readout= EC50, system= ERR1 (also known as ERR-α or ERR-1) (Homo sapiens)) for COC(=O)CN1C(=O)S/C(=C\c2ccc3c(cnn3[C@H]3CCc4cc(Cl)ccc43)c2)C1=O
Solution: 29

Problem: # get_value(readout= EC50, system= ERR1 (also known as ERR-α or ERR-1) (Homo sapiens)) for COC(=O)C1(N2C(=O)S/C(=C\c3ccc4c(cnn4Cc4ccc(Cl)cc4C(F)(F)F)c3)C2=O)CCC1
Solution: 99

Problem: # get_value(readout= EC50, system= ERR1 (also known as ERR-α or ERR-1) (Homo sapiens)) for O=C1S/C(=C\c2ccc3c(cnn3Cc3ccc(Cl)cc3C(F)(F)F)c2)C(=O)N1CCNc1ccc([N+](=O)[O-])cn1
Solution: 438

Problem: # get_value(readout= EC50, system= ERR1 (also known as ERR-α or ERR-1) (Homo sapiens)) for O=C1S/C(=C\c2ccc3c(cnn3Cc3ccc(Cl)cc3C(F)(F)F)c2)C(=O)N1C1(C(=O)O)CCCCC1
Solution: 88

The measurements presented in this section are drawn from patent US8796256B2.
